system: Leptinotarsa decemlineata; experiment: Insecticidal activity against first-instar larval stage of Leptinotarsa decemlineata infested potato leaves assessed as mortality at 20 mg after 24 hr relative to control; format: functional
Threshold check on mortality: at or above 20% gives Criterion met, strictly below gives Criterion not met.

compound	assigned_category
CC12CCC(C1)C(C)(C)C2=O (stereo not drawn)	Criterion met
C=C1C2CCC(C2)C1(C)C (stereo not drawn)	Criterion met
CC1=CC[C@@H](C(C)(C)O)CC1	Criterion met

Data request: Form field: mortality at least 20%? Entry: CC12CCC(C1)C(C)(C)C2O (stereo not drawn)
Data returned: Criterion not met

Data request: Given CC1CCC(C(C)C)C(O)C1 (stereo not drawn) , state whether its mortality is at least 20%.
Data returned: Criterion not met

Data request: Quick check, mortality >= 20%? CC12CCC(CC1=O)C2(C)C (stereo not drawn)
Data returned: Criterion met

Data request: # check: mortality of `CC(C)[C@H]1CC[C@@H](C)C[C@@H]1O` is greater than or equal to 20%
Data returned: Criterion not met

Data request: Check the entry CC1(C)C2CCC1(C)C(O)C2 (stereo not drawn) : does mortality equal or exceed 20%?
Data returned: Criterion not met

###

Here, each record is paired with measured mortality data.
system: Leptinotarsa decemlineata; experiment: Insecticidal activity against adult Leptinotarsa decemlineata infested potato leaves assessed as mortality at 10 mg after 24 hr relative to control; assay type: functional
Entry format: amount then unit.

molecule	assayed_target	obs_value
CC1CCC(C(C)C)C(O)C1 (stereo not drawn)	Leptinotarsa decemlineata	3.3%

Data request: Need mortality of CC12CCC(C1)C(C)(C)C2O (stereo not drawn) , thanks.
Data returned: 16.7%

Data request: // query mortality value for entry CC12CCC(C1)C(C)(C)C2=O (stereo not drawn)
Data returned: 100%

Data request: Could you share which mortality value was measured for CC1(C)C2CCC1(C)C(O)C2 (stereo not drawn) ?
Data returned: 0%

Data request: Looking for the measured mortality of `CC(C)[C@H]1CC[C@@H](C)C[C@@H]1O` , can you help?
Data returned: 20%

Data request: Quick check: mortality of C=C1C2CCC(C2)C1(C)C (stereo not drawn) ?
Data returned: 13.3%

Data request: // lookup mortality for CC12CCC(CC1=O)C2(C)C (stereo not drawn)
Data returned: 0%

Data request: Bench note: what mortality did `CC1=CC[C@@H](C(C)(C)O)CC1` show?
Data returned: 0%

###

tested on: Leptinotarsa decemlineata; test: Insecticidal activity against first-instar larval stage of Leptinotarsa decemlineata infested potato leaves assessed as mortality at 10 mg after 12 hr relative to control; assay type: functional
experimental_endpoint: mortality (%)
// note: answer is a bare numeric in %

compound	assayed_target	obs_value
CC12CCC(C1)C(C)(C)C2=O (stereo not drawn)	Leptinotarsa decemlineata	13.3
CC1(C)C2CCC1(C)C(O)C2 (stereo not drawn)	Leptinotarsa decemlineata	0
CC1=CC[C@@H](C(C)(C)O)CC1	Leptinotarsa decemlineata	3.3
CC1CCC(C(C)C)C(O)C1 (stereo not drawn)	Leptinotarsa decemlineata	0
C=C1C2CCC(C2)C1(C)C (stereo not drawn)	Leptinotarsa decemlineata	0

Data request: // mortality lookup, key: CC12CCC(C1)C(C)(C)C2O (stereo not drawn)
Data returned: 3.3

Data request: # lookup: mortality of `CC(C)[C@H]1CC[C@@H](C)C[C@@H]1O`
Data returned: 3.3

Data request: Which measured mortality value corresponds to CC12CCC(CC1=O)C2(C)C (stereo not drawn) ?
Data returned: 0
